# Test system: SF-539
# experimental_details: NCI tumour cell line growth inhibition, 48 h
Calls of active or inactive are those of the source. No stated cut-off is given here; in the data, active = GI50 up to about 1.1 µM and inactive = higher.
Classes used: active, inactive

molecule | assigned_class
CC(=O)OC1CC2(O)C(CCC3(C)C(c4ccc(=O)oc4)CCC32O)C2(C)C1=CC(O)C1OC12 (configuration not stated) | active
COc1cccc(/C=C2\N=C(Cl)OC2=O)c1O | inactive
CN1c2ccccc2S(=O)(=O)n2c(CCc3ccccc3)nnc21 | inactive
COc1ccc(NC(=S)NC(=O)c2ccc3c(c2)Sc2ccccc2O3)c([N+](=O)[O-])c1 | inactive
O=C(Nc1cccc(C(F)(F)F)c1)C(=O)C(C(=O)c1ccc2ccccc2c1)C1OC(=O)c2ccccc21 (configuration not stated) | inactive
Cc1ccc(/N=N/NCCCCN)cc1 | inactive
CC(=O)Nc1ccc(/C=C/C(=O)c2sc(C(N)=S)nc2C)cc1 | inactive
N#Cc1c(-c2ccco2)cc(-c2ccc(N)cc2)[nH]c1=O | inactive
CCOP(=O)(OCC)C(C(=O)OC)C(=O)C(=O)Nc1cccc(O)c1 (configuration not stated) | inactive
CCc1ccc(NC(=O)NC(=O)c2ccccc2[N+](=O)[O-])cc1Oc1ncc(Cl)cn1 | active
Nc1c(-c2ccc(Cl)cc2Cl)[n+]([O-])c2ccccc2[n+]1[O-] | inactive
COC(=O)CCC(C)C1CCC2C3CCC4CC5CCC4(C)C3(O5)C(Br)C(Br)C12C (configuration not stated) | inactive
FC(F)(F)c1ccc(C2ON=C(c3ccccc3)N2C23CC4CC(CC(C4)C2)C3)cc1 (configuration not stated) | inactive
CN(C)C(=N)/N=C(\N)Nc1cccc(Cl)c1 | inactive
COc1ccc(C(=O)NCCC2=CCCCC2)cc1 | inactive
CN(C)c1ccc2c(c1)C(=O)N(OS(=O)(=O)c1ccc([N+](=O)[O-])cc1)C2=O | inactive
Cc1cc(C)nc(NS(=O)(=O)c2ccc(Nc3c4ccccc4nc4c(C(=O)N5CCN(CCOS(C)(=O)=O)CC5)cccc34)cc2)n1 | inactive
Cc1cc(S(=O)(=O)Nc2nc(Nc3ccccc3)n[nH]2)c(SSc2cc(Cl)c(C)cc2S(=O)(=O)Nc2nc(Nc3ccccc3)n[nH]2)cc1Cl | inactive
O=C(O)/C(Cc1ccnc2ccccc12)=N\O | inactive
COCOCCCCCO[Si](C)(C)C(C)(C)C | inactive
COc1ccc(-c2nnc(CCCCCCCCc3nnc(-c4ccc(OC)cc4)n3N)n2N)cc1 | inactive
O=C(Nc1ccccc1)c1cc2ccccc2c(/N=N\c2cccc([N+](=O)[O-])c2)c1O | inactive
Sc1nnc(NNc2ccccc2)n1Nc1ccccc1 | inactive
Cc1ccc(-c2cc(-c3ccco3)c(C#N)c(O)n2)cc1 | inactive
OC(Cc1cccc2ccccc12)CN1CCC(c2ccccc2)CC1 (configuration not stated) | inactive
O=C(N/N=C/c1ccccc1O)c1ccccc1Nc1ccccc1C(=O)N/N=C/c1ccccc1O | inactive
Cc1ccc(S(=O)(=O)c2c(N)n(CCN(C)C)c3nc4ccccc4nc23)cc1 | inactive
N#CCCn1c(S)nnc1CCC(=O)Nc1ccc(Cl)cc1Cl | inactive
O=C1C=CC(=O)c2c1ccc1c3ccccc3n(CCCCCCCCCCCCn3c4ccccc4c4ccc5c(c43)C(=O)C=CC5=O)c21 | inactive
CCc1cccc(C(C)(C)C)c1NC(=S)N/C=C(/C#N)C(N)=O | inactive
CN/C=C(/c1ccc(OC)cc1)C(O)c1ccc(OC)c(OC)c1 (configuration not stated) | inactive
Nc1nc(CCl)nc(Nc2ccccc2)n1 | inactive
CCNC(=O)c1ccc(C)c(/N=N/N(C)C)c1 | inactive
CCCCCCCCCCC(O)C1CCC(C2CCC(C(O)CCCCC(O)CCCCCC(O)CC3=CC(C)OC3=O)O2)O1 (configuration not stated) | inactive
CCN(CC)CCN(/C(=N/c1ccccc1)N1CCOCC1)c1ccccc1 | inactive
CN1CCC2(CC1)SSC1(CCN(C)CC1)S2 | inactive
c1cnc2c(c1)-n1cccc1C1(CCCCC1)NN2 | inactive
Cc1ccc2cc3cccc(C(=O)NCCN(C)C)c3nc2c1 | inactive
CNC(=O)OCc1nc(SC2CCCCO2)n(C)c1COC(=O)NC (configuration not stated) | inactive
Oc1ccccc1/C=N/Nc1nnc2c3ccccc3c3ccccc3c2n1 | inactive
CC1(O)CC23CC1CCC2(C)C12CCCC(C)(C(=O)O1)C2CC3O (configuration not stated) | inactive
CCOC(=O)c1ccc(NC(=O)Oc2ccc3c(C)cc(=O)oc3c2)cc1 | inactive
